Biological target: CDK4-NanoLuc fusion with CCND1 in 293T or 293 cells (Homo sapiens)
Construct: host or cells: 293T (ATCC CRL-3216) or 293 (ATCC CRL-1573)
Test: NanoBRET Target Engagement (TE) Intracellular Kinase Assay, CDK4/CCND1
Type: cell-based
Conditions: NanoBRET TE intracellular kinase assay, 2-hour incubation, read-out: NanoBRET-CDK4/D1 IC50
The following compounds are listed with their measured pIC50 values.
Worth noting: pIC50 values are minus log10 of concentrations stated in mol/L.

Please review the entries below; each comes with its answer.
| Compound | pIC50 |
| --- | --- |
| COc1cccc(OCC(=O)Nc2cc([C@H]3CC[C@@H](OC(=O)NC4(C)CCC4)C3)[nH]n2)c1C=O | 5.63 |
| COc1cc(O)c(C=O)c(OCC(=O)Nc2cc([C@H]3CC[C@@H](OC(=O)N[C@@H]4C[C@@H]4F)C3)[nH]n2)c1 | 5.55 |
| COc1cc(O)c(C=O)c(OCC(=O)Nc2cc([C@H]3CC[C@@H](OC(=O)NC4(C#N)CCC4)C3)[nH]n2)c1 | 5.37 |

[ask] Item `COc1cc(O)c(C=O)c2c1C[C@@H](C(=O)Nc1cc([C@H]3CC[C@@H](OC(=O)NC(C)C)C3)[nH]n1)C2` with CDK4-NanoLuc fusion with CCND1 in 293T or 293 cells (Homo sapiens) - pIC50?
[reply] 6.18

[ask] Try `CC(C)NC(=O)O[C@@H]1CC[C@H](c2cc(NC(=O)Cc3ccc(-c4cccc(O)c4C=O)cc3)n[nH]2)C1` next.
[reply] 5.94

[ask] Try `COc1cc(O)c(C=O)c(OCC(=O)Nc2cc([C@H]3CC[C@@H](OC(=O)N4CC5CC4C5)C3)[nH]n2)c1` next.
[reply] 5.38

---

The following compounds are listed with their measured IC50 values.
System: Phospho-Rb Ser807/811 in OVCAR3 cells
Experiment: OVCAR3 Phospho-Rb Ser807/811 HTRF assay
Format: cell-based
Details: Homo sapiens, OVCAR-3, 1 h, OVCAR3 cells, Phospho-Rb Ser807/811 HTRF, 1 hour incubation; read-out: pRb-OVCAR3 IC50
Respond with a number, then the unit of measure.

[ask] Quick check: IC50 of CC(C)NC(=O)O[C@@H]1CC[C@H](c2cc(NC(=O)Cc3ccc(-c4cccc(O)c4C=O)cc3)n[nH]2)C1 [Compound 68, trifluoroacetic acid] ?
[reply] 662 nM

[ask] Try CC(C)NC(=O)O[C@@H]1CC[C@H](c2cc(NC(=O)COc3cc(OC(F)F)cc(O)c3C=O)n[nH]2)C1 [Compound 100] next.
[reply] 120 nM

[ask] Try CC(C)NC(=O)O[C@@H]1CC[C@H](c2cc(NC(=O)c3cc(-c4cnccc4C=O)nn3C)n[nH]2)C1 [Compound 44, trifluoroacetic acid] next.
[reply] 485 nM

[ask] Try C#C[C@@H]1CCCN1C(=O)O[C@@H]1CC[C@H](c2cc(NC(=O)COc3cc(OC)cc(O)c3C=O)n[nH]2)C1 [Compound 222] next.
[reply] 63.7 nM

[ask] Try COc1cc(O)c(C=O)c(OCC(=O)Nc2cc([C@H]3CC[C@@H](OC(=O)N4CCCN4C)C3)[nH]n2)c1 [Compound 278] next.
[reply] 95.9 nM

[ask] Try CC(C)NC(=O)O[C@H]1C[C@@H](c2cc(NC(=O)COc3cccc(O)c3C=O)n[nH]2)C1 [Compound 114] next.
[reply] 121 nM

---

Target: CDK4-NanoLuc fusion with CCND1 in 293T or 293 cells (Homo sapiens, UniProt P11802)
Construct: host or cells: 293T (ATCC CRL-3216) or 293 (ATCC CRL-1573)
Sequence (P11802 whole entry, the tested form may be a part): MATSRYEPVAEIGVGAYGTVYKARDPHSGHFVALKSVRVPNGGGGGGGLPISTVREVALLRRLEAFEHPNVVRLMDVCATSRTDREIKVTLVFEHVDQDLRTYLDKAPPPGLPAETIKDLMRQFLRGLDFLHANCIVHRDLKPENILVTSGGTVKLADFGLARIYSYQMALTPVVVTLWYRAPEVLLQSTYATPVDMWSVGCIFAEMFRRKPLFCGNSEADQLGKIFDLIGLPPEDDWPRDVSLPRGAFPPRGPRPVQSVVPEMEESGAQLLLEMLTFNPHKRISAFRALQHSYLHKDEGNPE
Sequence (P24385 whole entry partner, the tested form may be a part): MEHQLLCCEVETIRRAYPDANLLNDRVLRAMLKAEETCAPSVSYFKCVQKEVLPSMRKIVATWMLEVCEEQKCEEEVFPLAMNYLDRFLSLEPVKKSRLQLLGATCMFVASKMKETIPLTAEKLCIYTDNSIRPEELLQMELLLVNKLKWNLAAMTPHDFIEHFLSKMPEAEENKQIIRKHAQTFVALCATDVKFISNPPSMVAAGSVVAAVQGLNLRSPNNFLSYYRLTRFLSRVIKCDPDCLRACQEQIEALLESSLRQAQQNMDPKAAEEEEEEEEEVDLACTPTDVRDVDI
Experiment: NanoBRET Target Engagement (TE) Intracellular Kinase Assay, CDK4/CCND1
Format: cell-based
Details: NanoBRET TE intracellular kinase assay, 2-hour incubation, read-out: NanoBRET-CDK4/D1 IC50
Metric Name: IC50

Please review the entries below; each comes with its answer.
| Compound | IC50 |
| --- | --- |
| CC(C)NC(=O)O[C@@H]1CC[C@H](c2cc(NC(=O)COc3cc(C#N)cc(O)c3C=O)n[nH]2)C1 | 9.43 µM |
| COc1cc(O)c(C=O)c(OCC(=O)Nc2cc([C@H]3CC[C@@H](OC(=O)N4C[C@H]5C[C@@H]4CO5)C3)[nH]n2)c1 | > 10 µM |
| COCCNC(=O)O[C@@H]1CC[C@H](c2cc(NC(=O)COc3cc(OC)cc(O)c3C=O)n[nH]2)C1 | > 10 µM |
| COc1cc(O)c(C=O)c(OCC(=O)Nc2cc([C@H]3C[C@@H](OC(=O)N4C5COCC4C5)C3)[nH]n2)c1 | > 10 µM |
| CCCNC(=O)O[C@H]1C[C@@H](c2cc(NC(=O)COc3cc(OC)cc(O)c3C=O)n[nH]2)C1 | > 10 µM |

[ask] Quick check: IC50 of COc1cc(O)c(C=O)c(OCC(=O)Nc2cc([C@H]3CC[C@@H](OC(=O)N4CC5CC5C4)C3)[nH]n2)c1 (stereo partly shown) ?
[reply] 4.96 µM

[ask] Try `CCN(CC)C(=O)O[C@@H]1CC[C@H](c2cc(NC(=O)COc3cc(OC)cc(O)c3C=O)n[nH]2)C1` next.
[reply] 1.58 µM

---

Target: CDK1-NanoLuc fusion with CCNB1 in 293T or 293 cells (Homo sapiens, UniProt P06493)
Construct: host or cells: 293T (ATCC CRL-3216) or 293 (ATCC CRL-1573)
Sequence (P06493 whole entry, the tested form may be a part): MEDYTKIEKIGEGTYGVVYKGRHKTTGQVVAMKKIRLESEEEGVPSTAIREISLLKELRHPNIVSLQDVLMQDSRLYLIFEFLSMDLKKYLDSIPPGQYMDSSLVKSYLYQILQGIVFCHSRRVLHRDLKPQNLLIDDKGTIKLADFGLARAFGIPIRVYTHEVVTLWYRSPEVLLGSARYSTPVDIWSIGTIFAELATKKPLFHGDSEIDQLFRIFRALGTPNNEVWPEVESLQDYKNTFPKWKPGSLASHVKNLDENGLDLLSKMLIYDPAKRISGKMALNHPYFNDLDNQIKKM
Sequence (P14635 whole entry partner, the tested form may be a part): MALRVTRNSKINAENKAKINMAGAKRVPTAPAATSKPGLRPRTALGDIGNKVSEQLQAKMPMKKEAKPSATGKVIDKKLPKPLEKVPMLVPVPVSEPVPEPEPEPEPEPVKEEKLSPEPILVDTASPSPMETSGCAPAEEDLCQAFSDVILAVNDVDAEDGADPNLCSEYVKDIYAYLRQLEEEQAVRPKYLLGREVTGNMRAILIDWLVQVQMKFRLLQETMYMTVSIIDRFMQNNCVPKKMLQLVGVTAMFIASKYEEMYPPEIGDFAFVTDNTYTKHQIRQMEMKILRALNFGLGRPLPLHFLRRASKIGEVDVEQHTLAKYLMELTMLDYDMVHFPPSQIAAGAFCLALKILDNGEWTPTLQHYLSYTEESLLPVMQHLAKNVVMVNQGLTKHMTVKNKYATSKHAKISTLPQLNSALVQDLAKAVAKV
Test: NanoBRET Target Engagement (TE) Intracellular Kinase Assay, CDK1/CCNB1
Format: cell-based
Settings: NanoBRET TE intracellular kinase assay, 2-hour incubation, read-out: NanoBRET-CDK1/B1 IC50
pIC50: −log10 of the molar value.
Class MET: pIC50 at least 8. Class NOT MET: pIC50 below 8.

| Substance Smiles | Assigned Label |
| --- | --- |
| CC(C)NC(=O)O[C@@H]1CC[C@H](c2cc(NC(=O)OCc3cccc(O)c3C=O)n[nH]2)C1 | NOT MET |
| O=Cc1c(O)cccc1OCC(=O)Nc1cc([C@H]2CC[C@@H](OC(=O)NC3CC3)C2)[nH]n1 | NOT MET |
| CC(C)NC(=O)O[C@@H]1CC[C@H](c2cc(NC(=O)c3cc(-c4cccc(O)c4C=O)nn3C3CC3)n[nH]2)C1 | NOT MET |

[ask] Check the entry `COc1cc(O)c(C=O)c(OCC(=O)Nc2cc([C@H]3CC[C@@H](OC(=O)NC4(C)CC4)C3)[nH]n2)c1` : does pIC50 equal or exceed 8?
[reply] MET

---

Biological target: CDK2-NanoLuc fusion with CCNE1 in 293T or 293 cells (Homo sapiens)
Construct: host or cells: 293T (ATCC CRL-3216) or 293 (ATCC CRL-1573)
Experiment: NanoBRET Target Engagement (TE) Intracellular Kinase Assay, CDK2/CCNE1
Format: cell-based
Details: NanoBRET TE intracellular kinase assay, 2-hour incubation, read-out: NanoBRET-CDK2/E1 IC50
The following compounds are listed with their measured pIC50 values.
Worth noting: pIC50 values are minus log10 of concentrations stated in mol/L.

Please review the entries below; each comes with its answer.
| Compound | Measured Value |
| --- | --- |
| COc1cc(O)c(C=O)c(OCC(=O)Nc2cc([C@H]3CC[C@@H](OC(=O)NC4(CC#N)CC4)C3)[nH]n2)c1 | 8.01 |
| COc1cc(O)c(C=O)c(OCC(=O)Nc2cc([C@H]3CC[C@@H](OC(=O)N4CC[C@H](OC)C4)C3)[nH]n2)c1 | 8.30 |
| CC(C)NC(=O)O[C@@H]1CC[C@H](c2cc(NC(=O)COCc3cccc(O)c3C=O)n[nH]2)C1 | 8.09 |
| CC(C)c1ccc(O[C@@H]2CC[C@H](c3cc(NC(=O)CCc4cccc(O)c4C=O)n[nH]3)C2)nn1 | 6.86 |
| COc1cc(O)c(C=O)c(OCC(=O)Nc2cc([C@H]3C[C@@H](OC(=O)NC(C)C)C3)[nH]n2)c1 [Compound 113] | 8.38 |

Proceed to the following item.
[ask] Quick check: pIC50 of `CC(C)NC(=O)O[C@@H]1CC[C@H](c2cc(NC(=O)c3cc(-c4cccc(C=O)c4O)nn3C)n[nH]2)C1` ?
[reply] 7.94

---

Biological target: CDK2-NanoLuc fusion with CCNE1 in 293T or 293 cells (Homo sapiens, UniProt P24941)
Construct: host or cells: 293T (ATCC CRL-3216) or 293 (ATCC CRL-1573)
Assay: NanoBRET Target Engagement (TE) Intracellular Kinase Assay, CDK2/CCNE1
Format: cell-based
Conditions: NanoBRET TE intracellular kinase assay, 2-hour incubation, read-out: NanoBRET-CDK2/E1 IC50
The following compounds are listed with their measured pIC50 values.
Worth noting: pIC50 values are minus log10 of concentrations stated in mol/L.

| Compound | Target System | pIC50 |
| --- | --- | --- |
| COc1cc(O)c(C=O)c(OCC(=O)Nc2cc([C@H]3CC[C@@H](OC(=O)N4CC5CC(C4)O5)C3)[nH]n2)c1 [Compound 235] | CDK2-NanoLuc fusion with CCNE1 in 293T or 293 cells (Homo sapiens, UniProt P24941) | 8.12 |
| CC1(NC(=O)O[C@@H]2CC[C@H](c3cc(NC(=O)COc4cccc(O)c4C=O)n[nH]3)C2)CCC1 [Compound 83] | CDK2-NanoLuc fusion with CCNE1 in 293T or 293 cells (Homo sapiens, UniProt P24941) | 8.32 |
| COc1cc(O)c(C=O)c(OCC(=O)Nc2cc([C@H]3CC[C@@H](OC(=O)N(C)CCC#N)C3)[nH]n2)c1 [Compound 155] | CDK2-NanoLuc fusion with CCNE1 in 293T or 293 cells (Homo sapiens, UniProt P24941) | 8.12 |
| COc1cc(O)c(C=O)c(OCC(=O)Nc2cc([C@H]3CC[C@@H](OC(=O)N[C@H]4C[C@H]4F)C3)[nH]n2)c1 [Compound 132] | CDK2-NanoLuc fusion with CCNE1 in 293T or 293 cells (Homo sapiens, UniProt P24941) | 8.47 |
| Cc1cc(O)c(C=O)c(OCC(=O)Nc2cc([C@H]3CC[C@@H](OC(=O)N4CCC4(C)C)C3)[nH]n2)c1 [Compound 162] | CDK2-NanoLuc fusion with CCNE1 in 293T or 293 cells (Homo sapiens, UniProt P24941) | 8.51 |

[ask] Quick check: pIC50 of COCC1(NC(=O)O[C@@H]2CC[C@H](c3cc(NC(=O)COc4cc(OC)cc(O)c4C=O)n[nH]3)C2)CC1 [Compound 209] ?
[reply] 8.18

[ask] Try Cc1cc(O)c(C=O)c(OCC(=O)Nc2cc([C@H]3CC[C@@H](OC(=O)N4C5COCC4C5)C3)[nH]n2)c1 [Compound 199] next.
[reply] 8.42

meta.source: patent US20250289789A1
